Molecular target: T1, human TIGIT ECD-his (fusion protein of extracellular domain of human TIGIT and His-tag) (human)
T1 construct: entry includes the signal peptide, limits not readable here
T1 chain: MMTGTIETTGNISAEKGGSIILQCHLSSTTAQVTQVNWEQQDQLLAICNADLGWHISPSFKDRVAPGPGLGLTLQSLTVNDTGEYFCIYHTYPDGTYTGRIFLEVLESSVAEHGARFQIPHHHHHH
Test: BIAcore kinetics
measured-endpoint: koff (s⁻¹)
Kindly provide the numeric value in s⁻¹ only, without the unit symbol.

Which koff is reported for this binder? TIGIT-F5-070 (antibody, V domains shown, mouse hybridoma antibody; variable domains as printed for TIGIT-CHI-070; tie rests on the number 070 only; also called mouse antibody TIGIT-070) VH: QVQLQQPGTELVKPGASVKLSCRASGYTFTNYYMHWVKQRPGRGLEWIGRIDPDSGGSKYNEKFKSKATLTVDKLSSTAYMQLSSLTSEDSAVYYCAREGHYGFYSDYWGQGTTLTVSS VL: DIQMTQSPASLSASVGETVTITCRVSENIYSYLAWYQQKQGKSPQLLVYNAKTLAEGVPSRFSGSGSGTQFSLKINSLQPEDFGNYYCQHHYGNPLTFGAGTKLDLK
0.000117

Data origin, for the record: patent US20240343803A1
